Source: ChEMBL document CHEMBL1136016

# Tested Target: Adenosine receptor A2a (Homo sapiens, UniProt P29274)
# Sequence (P29274 whole entry): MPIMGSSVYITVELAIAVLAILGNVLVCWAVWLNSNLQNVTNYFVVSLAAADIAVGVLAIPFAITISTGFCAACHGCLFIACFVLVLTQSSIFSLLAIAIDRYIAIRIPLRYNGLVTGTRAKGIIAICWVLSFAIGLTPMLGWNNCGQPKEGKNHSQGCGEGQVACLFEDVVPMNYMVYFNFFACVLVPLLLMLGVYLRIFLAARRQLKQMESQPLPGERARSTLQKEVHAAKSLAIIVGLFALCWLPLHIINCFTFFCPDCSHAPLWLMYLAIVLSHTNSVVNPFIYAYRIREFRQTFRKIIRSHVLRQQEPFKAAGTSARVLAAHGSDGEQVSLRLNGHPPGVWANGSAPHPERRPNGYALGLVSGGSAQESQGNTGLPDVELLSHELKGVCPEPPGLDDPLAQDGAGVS
# Test Description: Displacement of [3H]SCH-58261 from human Adenosine A2A receptor expressed in HEK293 cells; range 511-648
# Format: cell-based
Property Label: pKi
When answering, recall that pKi equals minus log10 of the concentration in mol/L, and write that number alone.

# get_value(readout='pKi', item= CCn1cc2c(nc(NC(=O)Nc3ccc4c(c3)OCO4)n3nc(-c4ccco4)nc23)n1 )
6.24

---

# Tested Target: Adenosine receptor A1 (Homo sapiens)
# Sequence (P30542 whole entry): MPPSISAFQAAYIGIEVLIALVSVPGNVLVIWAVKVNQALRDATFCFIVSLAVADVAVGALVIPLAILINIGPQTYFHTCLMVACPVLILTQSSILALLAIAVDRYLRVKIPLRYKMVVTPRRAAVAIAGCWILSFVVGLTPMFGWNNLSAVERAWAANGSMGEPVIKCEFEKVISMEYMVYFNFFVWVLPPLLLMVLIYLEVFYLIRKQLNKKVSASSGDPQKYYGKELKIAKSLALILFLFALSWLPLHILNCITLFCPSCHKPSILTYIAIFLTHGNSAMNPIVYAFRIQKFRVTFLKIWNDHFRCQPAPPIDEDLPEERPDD
# Test Description: Displacement of [3H]DPCPX from human Adenosine A1 receptor expressed in CHO cells
# Assay type: cell-based
Property Label: Ki

# get_value(readout='Ki', item= CCCn1cc2c(nc(NC(=O)Nc3ccc(S(=O)(=O)O)cc3)n3nc(-c4ccco4)nc23)n1 )
> 10 µM

Likewise for CCCCn1cc2c(nc(NC(=O)Nc3ccc(S(=O)(=O)O)cc3)n3nc(-c4ccco4)nc23)n1 ?
> 10 µM

// next entry
# get_value(readout='Ki', item= CCn1cc2c(nc(NC(=O)Nc3ccc(S(=O)(=O)O)cc3)n3nc(-c4ccco4)nc23)n1 )
> 10 µM

---

# Tested Target: Adenosine receptors; A2b & A3 (Homo sapiens) (UniProt P29275+P0DMS8)
# Test Description: Selectivity ratio (h2B/hA3)
# Type: protein assay
Param threshold (300) applies to Ratio; output TRUE when value >= threshold, FALSE when value < threshold.

Some entries whose results are on file:
Quick check, Ratio >= 300? CCCn1cc2c(nc(NC(=O)Nc3ccc(Br)cc3)n3nc(-c4ccco4)nc23)n1
TRUE

Likewise for CCCn1cc2c(nc(NC(=O)Nc3ccccc3Cl)n3nc(-c4ccco4)nc23)n1 ?
FALSE

Likewise for CCCCn1cc2c(nc(NC(=O)Nc3cccc(Cl)c3)n3nc(-c4ccco4)nc23)n1 ?
FALSE

Likewise for Cn1cc2c(nc(NC(=O)Nc3ccc(C(F)(F)F)cc3)n3nc(-c4ccco4)nc23)n1 ?
TRUE

Likewise for CCCn1cc2c(nc(NC(=O)Nc3ccccc3OC)n3nc(-c4ccco4)nc23)n1 ?
TRUE

Likewise for CCn1cc2c(nc(NC(=O)Nc3ccccc3Cl)n3nc(-c4ccco4)nc23)n1 ?
TRUE

Likewise for CCCCn1cc2c(nc(NC(=O)Nc3ccc(OC)cc3)n3nc(-c4ccco4)nc23)n1 ?
TRUE

Likewise for CCn1cc2c(nc(NC(=O)Nc3ccc(F)cc3)n3nc(-c4ccco4)nc23)n1 ?
FALSE

Likewise for Cn1cc2c(nc(NC(=O)Nc3ccc(Cl)c(Cl)c3)n3nc(-c4ccco4)nc23)n1 ?
FALSE

Likewise for O=C(Nc1cccc(Cl)c1)Nc1nc2ccc(Cl)cc2c2nc(-c3ccco3)nn12 ?
FALSE

Next:
Quick check, Ratio >= 300? CCCn1cc2c(nc(NC(=O)Nc3cccc(Cl)c3)n3nc(-c4ccco4)nc23)n1
FALSE

Likewise for Cn1cc2c(nc(NC(=O)Nc3ccc(Br)cc3)n3nc(-c4ccco4)nc23)n1 ?
TRUE

Likewise for Cn1cc2c(nc(NC(=O)Nc3ccc(F)cc3)n3nc(-c4ccco4)nc23)n1 ?
TRUE

---

# Tested Target: Adenosine receptors; A1 & A3 (Homo sapiens) (UniProt P30542+P0DMS8)
# Sequence (P0DMS8 whole entry, looked up, one chain of several): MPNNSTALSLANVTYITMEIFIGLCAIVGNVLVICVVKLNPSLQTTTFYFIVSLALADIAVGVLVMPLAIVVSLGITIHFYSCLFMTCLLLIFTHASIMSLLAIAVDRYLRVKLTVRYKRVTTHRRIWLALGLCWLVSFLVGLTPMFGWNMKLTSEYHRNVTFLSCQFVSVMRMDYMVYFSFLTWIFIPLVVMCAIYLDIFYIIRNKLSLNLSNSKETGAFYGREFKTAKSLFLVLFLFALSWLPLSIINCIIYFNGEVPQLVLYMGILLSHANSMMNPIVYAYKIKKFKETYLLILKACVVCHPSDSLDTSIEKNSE
# Test Description: Selectivity ratio (hA1/hA3)
# Format: protein assay
Param threshold (2000) applies to Ratio; output true (1) when value >= threshold, false (0) when value < threshold.

Quick check, Ratio >= 2000? CCCCn1cc2c(nc(NC(=O)Nc3cccc(Cl)c3)n3nc(-c4ccco4)nc23)n1
false (0)

Likewise for CCCn1cc2c(nc(NC(=O)Nc3ccc4c(c3)OCO4)n3nc(-c4ccco4)nc23)n1 ?
true (1)

Likewise for CCCCn1cc2c(nc(NC(=O)Nc3ccc(OC)cc3)n3nc(-c4ccco4)nc23)n1 ?
false (0)

Next:
Quick check, Ratio >= 2000? CCn1cc2c(nc(NC(=O)Nc3ccc(OC)cc3)n3nc(-c4ccco4)nc23)n1
false (0)

Likewise for CCCCn1cc2c(nc(NC(=O)Nc3ccc(Br)cc3)n3nc(-c4ccco4)nc23)n1 ?
false (0)

---

Reported Ratio by item:
# Tested Target: Adenosine receptors; A1 & A3 (Homo sapiens) (UniProt P30542+P0DMS8)
# Test Description: Selectivity ratio (hA1/hA3)
# Assay type: protein assay
Write no unit; give the number alone.

Below, 5 compounds whose answers are already recorded.
# get_value(readout='Ratio', item= CCCn1cc2c(nc(NC(=O)Cc3ccccc3)n3nc(-c4ccco4)nc23)n1 )
348

Likewise for CCCCn1cc2c(nc(NC(=O)Nc3ccc(Cl)c(Cl)c3)n3nc(-c4ccco4)nc23)n1 ?
191

Likewise for CCn1cc2c(nc(NC(=O)Nc3ccc(F)cc3)n3nc(-c4ccco4)nc23)n1 ?
700

Likewise for CCCn1cc2c(nc(NC(=O)Nc3ccc(C)cc3)n3nc(-c4ccco4)nc23)n1 ?
755

Likewise for CCCn1cc2c(nc(NC(=O)Nc3ccc(C(F)(F)F)cc3)n3nc(-c4ccco4)nc23)n1 ?
784

Next:
# get_value(readout='Ratio', item= Cn1cc2c(nc(NC(=O)Nc3cccc(Cl)c3)n3nc(-c4ccco4)nc23)n1 )
875

Likewise for CCn1cc2c(nc(NC(=O)Nc3ccc(Cl)c(Cl)c3)n3nc(-c4ccco4)nc23)n1 ?
175

Likewise for Cn1cc2c(nc(NC(=O)Nc3ccc(F)cc3)n3nc(-c4ccco4)nc23)n1 ?
2060

Likewise for O=C(Nc1cccc(Cl)c1)Nc1nc2ccc(Cl)cc2c2nc(-c3ccco3)nn12 ?
54

Likewise for CCCn1cc2c(nc(NC(=O)Nc3ccccc3OC)n3nc(-c4ccco4)nc23)n1 ?
735

Likewise for CCCn1cc2c(nc(NC(=O)Nc3ccccc3)n3nc(-c4ccco4)nc23)n1 ?
1170

Likewise for Cn1cc2c(nc(NC(=O)Nc3ccc(Cl)cc3)n3nc(-c4ccco4)nc23)n1 ?
1480

---

# Tested Target: Adenosine receptors; A1 & A3 (Homo sapiens) (UniProt P30542+P0DMS8)
# Test Description: Selectivity ratio (hA1/hA3)
# Type: protein assay
Property Label: Ratio
Write no unit; give the number alone.

Below, 8 compounds whose answers are already recorded.
# get_value(readout='Ratio', item= CCn1cc2c(nc(NC(=O)Nc3ccc([N+](=O)[O-])cc3)n3nc(-c4ccco4)nc23)n1 )
1740

Likewise for CCn1cc2c(nc(NC(=O)Cc3ccccc3)n3nc(-c4ccco4)nc23)n1 ?
693

Likewise for CCCCn1cc2c(nc(NC(=O)Nc3ccc(C)cc3)n3nc(-c4ccco4)nc23)n1 ?
1340

Likewise for Cn1cc2c(nc(NC(=O)Nc3ccccc3)n3nc(-c4ccco4)nc23)n1 ?
3710

Likewise for COc1cccc(NC(=O)Nc2nc3nn(C)cc3c3nc(-c4ccco4)nn23)c1 ?
625

Likewise for Cn1cc2c(nc(NC(=O)Nc3ccc(Cl)c(Cl)c3)n3nc(-c4ccco4)nc23)n1 ?
115

Likewise for CCCCn1cc2c(nc(NC(=O)Nc3ccc([N+](=O)[O-])cc3)n3nc(-c4ccco4)nc23)n1 ?
1060

Likewise for CCCCn1cc2c(nc(NC(=O)Nc3cccc(OC)c3)n3nc(-c4ccco4)nc23)n1 ?
413

Next:
# get_value(readout='Ratio', item= CCCn1cc2c(nc(NC(=O)Nc3cccc(Cl)c3)n3nc(-c4ccco4)nc23)n1 )
33

Likewise for CCCn1cc2c(nc(NC(=O)Nc3ccc(Cl)cc3)n3nc(-c4ccco4)nc23)n1 ?
956

Likewise for CCCn1cc2c(nc(NC(=O)Nc3ccc([N+](=O)[O-])cc3)n3nc(-c4ccco4)nc23)n1 ?
1500

Likewise for Cn1cc2c(nc(NC(=O)Cc3ccccc3)n3nc(-c4ccco4)nc23)n1 ?
867

Likewise for CCCn1cc2c(nc(NC(=O)Nc3ccc(Cl)c(Cl)c3)n3nc(-c4ccco4)nc23)n1 ?
244

Likewise for CCn1cc2c(nc(NC(=O)Nc3ccc(C)cc3)n3nc(-c4ccco4)nc23)n1 ?
1870

Likewise for Cn1cc2c(nc(NC(=O)Nc3ccc(C(F)(F)F)cc3)n3nc(-c4ccco4)nc23)n1 ?
1010
